Measured melting point of individual entries

// below: answered molecules
| molecule | melting point |
| --- | --- |
| Cc1ccnc(N)c1N | 111 to 113 °C |
| CON(C)S(=O)(=O)c1cc(C(=O)O)ccc1Cl | 228 to 230 °C |
| Cc1ccccc1-c1nnc(S)n1N | 199 to 201 °C |

Give melting point for "COc1ccccc1-c1nnc(N)[nH]1"
214 to 216 °C

Give melting point for CC(CC(=O)O)NC(=O)OCc1ccccc1 (centres undefined)
129 to 131 °C

Give melting point for "Cc1n[nH]c2cc(N)ccc12"
189 to 191 °C

Give melting point for "S=c1cc[nH]c2ccccc12"
159 to 161 °C

Give melting point for "Cc1ccc(Sc2nc(=N)s[nH]2)cc1"
181 to 183 °C

Give melting point for "NS(=O)(=O)c1cccc2c1CCCN2"
147 to 149 °C

Give melting point for "NS(=O)(=O)C1CN(C(=O)OCc2ccccc2)C1"
103 to 105 °C

====

Measured melting point of individual entries

// below: answered compounds
| mol.smiles | melting point |
| --- | --- |
| Nc1ccc(S(=O)(=O)Nc2ccc(F)cc2)cc1 | 162 to 164 °C |
| Cc1ccc(-c2ocnc2C(=O)O)cc1 | 193 to 195 °C |
| Cc1cc(C(=O)O)nn1C(F)F | 175 to 177 °C |
| Oc1ccc(-c2ccc(F)cc2)nn1 | 269 to 271 °C |

Give melting point for "Nc1nnc(SCc2ccccc2)s1"
159 to 161 °C

Give melting point for "NC(=O)CCNCc1ccccc1"
164 to 166 °C

====

Measured melting point of individual entries

// below: answered compounds
| compound | melting point |
| --- | --- |
| Nc1c2c(nn1-c1ccccc1)CCC2 | 180 to 182 °C |
| Cc1ccc(C#N)c(Br)c1 | 50 to 55 °C |
| O=[N+]([O-])c1ccc(Br)c(S(=O)(=O)Cl)c1 | 86 to 88 °C |
| CCOc1ncccc1C(=O)O | 90 to 92 °C |
| C#Cc1cccc(NCC(=O)NC)c1 | 127 to 129 °C |

Give melting point for "N#Cc1ccc(C(=O)NN)cc1"
195 to 197 °C

Give melting point for "CC(C)(C)OC(=O)NCCc1nc(N)no1"
116 to 118 °C

Give melting point for "O=C(CCl)NC(=O)Nc1ccc2c(c1)OCCO2"
128 to 130 °C

Give melting point for "CCN(Cc1ccccc1N)C(C)=O"
79 to 81 °C

Give melting point for "CN(C)c1ccc(Br)c(S(=O)(=O)Cl)c1"
111 to 113 °C

Give melting point for "C#CCNC(=O)Nc1ccc(Cl)cc1"
211 to 213 °C

Give melting point for "O=C(O)Cc1cccc(OCc2cccnc2)c1"
139 to 141 °C

Give melting point for "CC(C)(C)OC(=O)N1CCc2[nH]c(=O)c(S(C)(=O)=O)cc2C1"
229 to 231 °C

Give melting point for CCCCC(NC(N)=O)C(=O)O (stereo unspecified)
166 to 168 °C

Give melting point for CC(C)S(=O)(=O)NCC1CCCNC1 (stereo unspecified)
156 to 158 °C

Give melting point for "COC(=O)c1ccc(Sc2ccc(Cl)cn2)c(N)c1"
121 to 123 °C

Give melting point for "Nc1nnnn1-c1ccccc1"
159 to 161 °C

Give melting point for "COCCNc1nc2ccccc2[nH]1"
170 to 172 °C

Give melting point for "CN(C)C(=O)Sc1cnn(-c2ccccc2F)c1"
65 to 67 °C

Give melting point for CC(C)c1nn(C2CCS(=O)(=O)C2)cc1C(=O)O (stereo unspecified)
202 to 204 °C

Give melting point for "Cc1cc(Br)ccc1N1CCCS1(=O)=O"
77 to 79 °C

Give melting point for "NS(=O)(=O)c1ccc(C(=O)O)cc1F"
274 to 276 °C

Give melting point for "CC(C)(CC(=O)O)CC(=O)N1CCOCC1"
80 to 82 °C

Give melting point for "Nc1ccc(Oc2ccc(C(F)(F)F)cc2)nc1"
116 to 118 °C

Give melting point for "Cc1ccccc1OCCC(=O)O"
92 to 94 °C

Give melting point for "O=C1CCCc2cc(C(=O)O)ccc2N1"
267 to 269 °C

Give melting point for CCOc1ccc(C2(C)NC(=O)NC2=O)cc1 (stereo unspecified)
190 to 192 °C
